test system: Adjuvant-Induced Arthritis; test: Inhibitory activities against adjuvant-induced arthritis (Test Example 2); format: in vivo, rats (usually Lewis rats); settings: oral, once daily for 21 successive days; foot swelling volume one day after final administration
Kindly state ID50 values for each of the entries shown.
Give a bare numeral; the unit mg/kg is implied.

Would you mind telling me what ID50 values value was observed for C[C@](N)(CO)CCc1ccc(C#CCCOC2CCCCC2)o1.O=C(O)C(=O)O ?
0.0774

Would you mind telling me what ID50 values value was observed for C[C@](N)(CO)CCc1ccc(C#CCCOC2CCCCC2)o1.Cl ?
0.102

Would you mind telling me what ID50 values value was observed for C[C@](N)(CO)CCc1ccc(C#CCCCC2CCCCC2)o1.O=C(O)C(=O)O ?
0.0899

Would you mind telling me what ID50 values value was observed for Cl.Cn1c(CC[C@@](C)(N)CO)ccc1C(=O)CCCCc1ccccc1 ?
0.0941

Would you mind telling me what ID50 values value was observed for C[C@](N)(CO)CCc1ccc(C#CCCCC2CCCCC2)o1.Cl ?
0.108
